tested_target: (His)6-SOX11-DBD protein (Homo sapiens, UniProt P35716)
Construct: Recombinant (His)6-SOX11-DBD protein was immobilized
Sequence (P35716 49-117 limits assumed): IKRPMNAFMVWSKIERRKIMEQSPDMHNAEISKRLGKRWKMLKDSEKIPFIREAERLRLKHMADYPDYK
experimental_details: Surface Plasmon Resonance (SPR) assay
Type: binding
condition_summary: immobilized recombinant (His)6-SOX11-DBD, 25° C., compounds 5-40 μM, mean of three experiments
measurement_type: Kd (µM)
Numeric answer only, unit µM assumed.

compound: CC(=O)N1CCN(S(=O)(=O)c2ccc(NC(=O)c3ccc4c(c3)CCCS4)cc2)CC1
unit_of_measurement: µM
Kd: 24.1
//
compound: O=C(Nc1ccc(S(=O)(=O)Nc2ccccc2)cc1)c1ccc2cn[nH]c2c1
unit_of_measurement: µM
Kd: 48.4
//
compound: CC1Sc2ccc(C(=O)Nc3ccc(S(C)(=O)=O)cc3)cc2NC1=O (stereo not drawn)
unit_of_measurement: µM
Kd: 7.13
//
compound: CC1Sc2ccc(C(=O)Nc3cccc(S(=O)(=O)N4CCCC4)c3)cc2N(C)C1=O (stereo not drawn)
unit_of_measurement: µM
Kd: 346
//
compound: O=C1COc2ccc(C(=O)Nc3ccc(S(=O)(=O)Nc4ccccc4)cc3)cc2N1
unit_of_measurement: µM
Kd: 17.9
//
compound: Cc1cccc(NS(=O)(=O)c2ccc(NC(=O)c3ccc4c(c3)NC(=O)C(C)S4)cc2)c1 (stereo not drawn)
unit_of_measurement: µM
Kd: 1.16

Qu. For the compound Cc1cc(C(=O)Nc2ccc(OCc3ccccc3)cc2)nc(NCCN)n1 , report Kd.
Ans. 122

Qu. For the compound CC1Sc2ccc(C(=O)Nc3cccc(S(=O)(=O)N4CCN(C(=O)OC(C)(C)C)CC4)c3)cc2NC1=O (stereo not drawn) , report Kd.
Ans. 1.76

Qu. For the compound O=C(Nc1ccc(S(=O)(=O)Nc2ccccc2)cc1)c1ccc2ccccc2c1 , report Kd.
Ans. 3.42
